The entries below come with measured GFP MFI, FIG. 8 values attached.
# System: GFPY40 reporter (GFP containing an amber codon) in HEK293 cells stably expressing pylRS
# assayProcedure: Amber suppression-dependent GFP expression (GFPY40 reporter), transient transfection, flow cytometry
# Type: cell-based
# experimentalConditions: 1 ug PCR product of each construct; lys azide nnAA; three days
# Experimental: To assess the function of the tRNA variants, an in vitro assay was established where cells are transiently transfected with a tRNA construct and a reporter construct encoding GFP containing an amber codon interrupting its reading frame (GFPY40). HEK293 cells stably expressing pylRS were transiently transfected with various tRNA constructs (1 ug) and the GFPY40 reporter (1 ug). […] GFP fluorescence was then assayed by flow cytometry and mean fluorescence intensity determined for each sample. […]
readout: GFP MFI, FIG. 8

molecule="Vault A2B tRNA: tRNA-A2B downstream of the Vault promoter 5′ region (nucleic acid, Synthetic sequence Vault tRNA-A2B construct, tRNA-A2B downstream of the Vault promoter 5′ region) DNA: TGGTCGCTGAGTCATGCTGAAGCACTCTCTTTTTGACTCACTCTTTGTGACGTAGGTCTTTCTCACCAGTCAATAAAATATAATCCGAAAGCAACCTCCCACCAGGAAACCTGGTCAAGTAGATCGAATGGACTCTAAATCCGTTCAGCCGGGTTCGATTCCCGGGGTTTCCGGACAAGTGCGGTTTTT" measuredresult=154,445
molecule="7SL WT tRNA: WT tRNApyl downstream of the 7SL promoter 5′ region (nucleic acid, Synthetic sequence 7SL tRNA-WT construct, WT tRNApyl downstream of the 7SL promoter 5′ region) DNA: CCCAGTTGATGACGTCACCATACCACAGCTTCTAGTGCTATTCTGCGCCGGTATCCGACCACCAGGAAACCTGATCATGTAGATCGAATGGACTCTAAATCCGTTCAGCCGGGTTAGATTCCCGGGGTTTCCGGACAAGTGCGGTTTTT" measuredresult=106,075
molecule="WT tRNA: wild type tRNApyl gene of Methanosarcina mazei without extragenic promoter (nucleic acid, listed as Methanosarcina mazei, expressed or natural sequence, wild type tRNApyl gene of Methanosarcina mazei without extragenic promoter) DNA: GGAAACCTGATCATGTAGATCGAATGGACTCTAAATCCGTTCAGCCGGGTTAGATTCCCGGGGTTTCCG" measuredresult=117,626
molecule="H1-tRNA: WT tRNApyl under control of the H1 promoter, positive control (nucleic acid, Synthetic sequence H1 tRNA-WT construct) DNA: AATATTTGCATGTCGCTATGTGTTCTGGGAAATCACCATAAACGTGAAATCCCTATCAGTGATAGAGACTTATAAGTTCCCTATCAGTGATAGAGACACCAGGAAACCTGATCATGTAGATCGAATGGACTCTAAATCCGTTCAGCCGGGTTAGATTCCCGGGGTTTCCGGACAAGTGCGGTTTTTTT" measuredresult=828,503
molecule="7SL B tRNA: tRNA-B downstream of the 7SL promoter 5′ region (nucleic acid, Synthetic sequence 7SL tRNA-B construct, tRNA-B downstream of the 7SL promoter 5′ region) DNA: CCCAGTTGATGACGTCACCATACCACAGCTTCTAGTGCTATTCTGCGCCGGTATCCGACCACCAGGAAACCTGATCATGTAGATCGAATGGACTCTAAATCCGTTCAGCCGGGTTCGATTCCCGGGGTTTCCGGACAAGTGCGGTTTTT" measuredresult=265,396

The values you see were collected from patent US10131920B2.
